# assayed system: Sodium-dependent noradrenaline transporter (Homo sapiens)
# assay remarks: Inhibition of [3H]norepinephrine uptake at human NET expressed in HEK293 cells after 15 to 20 mins by microbeta scintillation counting method
# Assay type: cell-based
assay metric: IC50 (µM)
Please state the figure in µM; there is no need to write the unit.

INSERT INTO measurements (structure_string, assayed_system, assay_metric, obs_value) VALUES
  ('Clc1cccc(N2CCN(CCOc3ccc4ccccc4c3)CC2)c1', 'Sodium-dependent noradrenaline transporter (Homo sapiens)', 'IC50', 5.83),
  ('Brc1ccc(N2CCN(CCCOc3ccc4ccccc4c3)CC2)cc1', 'Sodium-dependent noradrenaline transporter (Homo sapiens)', 'IC50', 2.85),
  ('FC(F)(F)c1ccc(N2CCN(CCCCOc3ccc4ccccc4c3)CC2)cc1', 'Sodium-dependent noradrenaline transporter (Homo sapiens)', 'IC50', 20.5);

Next, consider the following compound.
Given the entry COc1ccccc1N1CCN(CCCCOc2ccc3ccccc3c2)CC1 , report its measured IC50.
29.7

---

# assayed system: Sodium-dependent noradrenaline transporter (Homo sapiens)
# assay remarks: Inhibition of [3H]norepinephrine uptake at human NET expressed in HEK293 cells at 10 uM after 15 to 20 mins by microbeta scintillation counting method
# Type: cell-based
Mark condition not met for inhibition values under 70%, and condition met for everything at or above.

INSERT INTO results (structure_string, assayed_system, class_label) VALUES
  ('c1ccc(CC2CCN(CCCCOc3ccc4ccccc4c3)CC2)cc1', 'Sodium-dependent noradrenaline transporter (Homo sapiens)', 'condition met');

State whether the measured inhibition reaches 70%, counting equality as reaching it, for Clc1cccc(N2CCN(CCOc3ccc4ccccc4c3)CC2)c1
condition met

Does inhibition meet or surpass 70% for Clc1cccc(N2CCN(CCOc3ccc4ccccc4c3)CC2)c1Cl ?
condition not met

Check if inhibition >= 70% (inclusive). Item: Clc1ccc(N2CCN(CCOc3ccc4ccccc4c3)CC2)c(Cl)c1
condition not met

Is reported inhibition greater than or equal to 70% here: c1ccc(N2CCN(CCCOc3ccc4ccccc4c3)CC2)cc1
condition met

---

# assayed system: Sodium-dependent serotonin transporter (Homo sapiens, UniProt P31645);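 note: uptake of tritiated serotonin into the transfected cells, quantified by MicroBeta scintillation counting over a 15–20 min period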
# Sequence (P31645 whole entry, looked up): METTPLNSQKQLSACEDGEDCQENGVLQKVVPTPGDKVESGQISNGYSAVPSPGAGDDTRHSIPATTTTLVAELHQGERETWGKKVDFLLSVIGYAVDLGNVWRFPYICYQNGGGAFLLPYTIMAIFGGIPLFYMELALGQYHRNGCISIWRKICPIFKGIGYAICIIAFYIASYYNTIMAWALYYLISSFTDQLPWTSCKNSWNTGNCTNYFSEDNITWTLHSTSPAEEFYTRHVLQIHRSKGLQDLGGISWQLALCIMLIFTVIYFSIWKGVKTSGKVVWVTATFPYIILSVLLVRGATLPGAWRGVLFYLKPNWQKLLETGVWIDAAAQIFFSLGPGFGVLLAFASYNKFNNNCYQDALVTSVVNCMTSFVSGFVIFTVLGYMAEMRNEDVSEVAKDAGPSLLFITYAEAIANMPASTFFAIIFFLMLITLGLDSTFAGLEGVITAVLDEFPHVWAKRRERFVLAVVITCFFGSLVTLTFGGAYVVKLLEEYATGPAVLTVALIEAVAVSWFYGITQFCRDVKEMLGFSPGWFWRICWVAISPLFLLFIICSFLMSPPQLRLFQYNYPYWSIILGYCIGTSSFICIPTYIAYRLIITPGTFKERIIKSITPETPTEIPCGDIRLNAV
# condition notes: HEK293, at 1 µM
# Description: Inhibition of [3H]serotonin uptake at human SERT expressed in HEK293 cells at 1 uM after 15 to 20 mins by microbeta scintillation counting method
Mark T for reported inhibition of 30% or greater; mark F for anything smaller.

Field: example entries. Status: answers known.
INSERT INTO results (structure_string, class_label) VALUES
  ('c1ccc(CC2CCN(CCCCOc3ccc4ccccc4c3)CC2)cc1', 'T'),
  ('COc1ccccc1N1CCN(CCCCOc2ccc3ccccc3c2)CC1', 'T'),
  ('Fc1ccc(N2CCN(CCOc3ccc4ccccc4c3)CC2)cc1', 'T'),
  ('c1ccc(N2CCN(CCCOc3ccc4ccccc4c3)CC2)cc1', 'F'),
  ('Clc1cccc(N2CCN(CCCCOc3ccc4ccccc4c3)CC2)c1', 'F'),
  ('c1cnc(N2CCN(CCOc3ccc4ccccc4c3)CC2)nc1', 'T');

Decide: inhibition of FC(F)(F)c1ccc(N2CCN(CCOc3ccc4ccccc4c3)CC2)cc1 >= 30%?
F

---

# key: entry, value: inhibition
# assayed system: Sodium-dependent noradrenaline transporter (Homo sapiens, UniProt P23975)
# Sequence (P23975 whole entry): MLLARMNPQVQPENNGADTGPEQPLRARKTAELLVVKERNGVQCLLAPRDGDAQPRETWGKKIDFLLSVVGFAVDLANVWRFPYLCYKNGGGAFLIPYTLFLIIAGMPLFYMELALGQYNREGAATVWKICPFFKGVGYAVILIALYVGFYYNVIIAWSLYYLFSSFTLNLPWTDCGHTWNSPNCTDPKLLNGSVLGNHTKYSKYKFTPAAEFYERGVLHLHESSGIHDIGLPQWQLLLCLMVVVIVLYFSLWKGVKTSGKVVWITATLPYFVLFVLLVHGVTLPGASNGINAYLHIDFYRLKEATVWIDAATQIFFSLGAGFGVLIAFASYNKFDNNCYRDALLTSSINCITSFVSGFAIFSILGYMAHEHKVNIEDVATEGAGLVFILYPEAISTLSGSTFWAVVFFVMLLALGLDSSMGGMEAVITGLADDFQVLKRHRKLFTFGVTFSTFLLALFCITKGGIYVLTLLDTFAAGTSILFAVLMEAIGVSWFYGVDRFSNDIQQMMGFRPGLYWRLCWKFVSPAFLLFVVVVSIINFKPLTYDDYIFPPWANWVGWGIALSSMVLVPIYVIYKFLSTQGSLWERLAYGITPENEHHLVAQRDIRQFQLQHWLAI
# assay remarks: Inhibition of [3H]norepinephrine uptake at human NET expressed in HEK293 cells at 10 uM after 15 to 20 mins by microbeta scintillation counting method
# Assay type: cell-based
Write the answer as a number in %, unit excluded.

Worked cases, inhibition given:
INSERT INTO measurements (structure_string, obs_value) VALUES
  ('c1ccc(N2CCN(CCCOc3ccc4ccccc4c3)CC2)nc1', 68.7),
  ('FC(F)(F)c1ccc(N2CCN(CCCCOc3ccc4ccccc4c3)CC2)cc1', 68.3),
  ('COc1ccccc1N1CCN(CCCCOc2ccc3ccccc3c2)CC1', 68);

Consider the compound Cc1cccc(C)c1N1CCN(CCOc2ccc3ccccc3c2)CC1 and give its measured inhibition.
74.9

# get_value(readout='inhibition', item= c1cnc(N2CCN(CCCOc3ccc4ccccc4c3)CC2)nc1 )
47.3

Form field: reported inhibition of c1ccc(N2CCN(CCCCOc3ccc4ccccc4c3)CC2)cc1
86.4
